Attribution: PubChem BioAssay

Assay: viability profiling in MM1S myeloma cells – cell-based, resazurin fluorescence, basal, 24 h, PK04 Diversity Set, profiling panel (AID 1174);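 further: MM1S multiple myeloma cell line; test concentration not given here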
Conditions: higher = more signal, called active from +8 up or from −8 down
If the reported z-score equals or exceeds -0.2, assign 1. If not, assign 0.

Examples with answers:
Compound: CN1C(=O)[C@@H]2[C@@H](CC(COc3ccccc3)=C3[C@@H](CCc4ccccc4)OB(O)C[C@@H]32)C1=O
Class name: 0
//
Compound: COCCOC(=O)N1C(=O)[C@@]2(c3ccccc31)[C@H](C(=O)N1CCN(c3ncccn3)CC1)[C@H]1C(=O)O[C@H](c3ccccc3)[C@H](c3ccccc3)N1[C@@H]2c1ccccc1OCCO
Class name: 0
//
Compound: CC(C)(C)N1CC=CC23O[C@@H]4C=CCCOC(=O)C4[C@H]2C(=O)N(CCCCCCO)[C@@H]3C1=O (some centres not stated)
Class name: 1
//
Compound: COc1ccc([Si](C)(C)[C@H]2[C@H](CC(=O)N3Cc4ccccc4C[C@H]3CO)O[C@@]3(C(=O)N(c4ccccc4)c4ccccc43)[C@@H]2C)cc1
Class name: 0

Ask: Check the entry O=C(NCC(O)CO)C1N=C(c2ccc(OCCCO)cc2)N(c2ccccc2)O1 (configuration not stated) : does z-score equal or exceed -0.2?
Reply: 0

Ask: // inclusive: z-score at least -0.2? input: C[C@@H]1ON(c2ccc(I)cc2)[C@H](c2cccc(NC(=O)OCC3c4ccccc4-c4ccccc43)c2)[C@H]1C(=O)N1C(=O)OC[C@H]1Cc1ccccc1
Reply: 1

Ask: z-score >= -0.2 for Cc1ccc(S[C@]2(C(=O)NCc3ccccc3)CC(=O)N(Cc3ccccc3C(F)(F)F)[C@@H]2c2ccc(CO)cc2)cc1 ?
Reply: 1
